Target: HIV-1 HXBc2 gp120 (HIV-1 (HXBc2), UniProt P04578)
Experiment: SPR
OBSERVATION TYPE: kon (M⁻¹ s⁻¹)
Give bare numbers, in M⁻¹ s⁻¹.

Below, 2 binders whose answers are already recorded.
* Fab m18 F99A (HCDR3) (Fab, V domains shown) VH: VQLLESGPGVVKPSETLSLTCTVSGASVNNYYWTWVRQPPGKGLEWIGNVYDSGDTNYNPSLSSRLSLSMDTSKNQFSLRLSSVTAADTATYYCARYHRHAIRGPLSFDYWGRGTLVTVSS VL: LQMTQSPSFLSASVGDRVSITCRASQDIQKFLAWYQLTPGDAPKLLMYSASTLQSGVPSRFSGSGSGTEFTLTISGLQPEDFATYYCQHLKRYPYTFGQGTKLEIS | 100000
* Fab m18 F99Y (HCDR3) (Fab, V domains shown) VH: VQLLESGPGVVKPSETLSLTCTVSGASVNNYYWTWVRQPPGKGLEWIGNVYDSGDTNYNPSLSSRLSLSMDTSKNQFSLRLSSVTAADTATYYCARYHRHYIRGPLSFDYWGRGTLVTVSS VL: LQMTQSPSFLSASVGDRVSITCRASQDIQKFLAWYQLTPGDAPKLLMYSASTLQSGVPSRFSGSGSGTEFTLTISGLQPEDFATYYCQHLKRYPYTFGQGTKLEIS | 100000

Report kon for each item below.
1. Fab m18 I100A (HCDR3) (Fab, V domains shown) VH: VQLLESGPGVVKPSETLSLTCTVSGASVNNYYWTWVRQPPGKGLEWIGNVYDSGDTNYNPSLSSRLSLSMDTSKNQFSLRLSSVTAADTATYYCARYHRHFARGPLSFDYWGRGTLVTVSS VL: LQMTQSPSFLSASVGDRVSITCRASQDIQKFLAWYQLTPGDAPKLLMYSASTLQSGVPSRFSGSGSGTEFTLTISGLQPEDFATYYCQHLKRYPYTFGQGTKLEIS
2. Fab m18 S52A (LCDR2) (Fab, V domains shown) VH: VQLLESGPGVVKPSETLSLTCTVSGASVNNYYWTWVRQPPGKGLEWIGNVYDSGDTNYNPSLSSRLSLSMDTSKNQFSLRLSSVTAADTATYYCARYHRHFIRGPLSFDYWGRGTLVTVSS VL: LQMTQSPSFLSASVGDRVSITCRASQDIQKFLAWYQLTPGDAPKLLMYSAATLQSGVPSRFSGSGSGTEFTLTISGLQPEDFATYYCQHLKRYPYTFGQGTKLEIS
3. Fab m18 (wild type) (Fab, V domains shown) VH: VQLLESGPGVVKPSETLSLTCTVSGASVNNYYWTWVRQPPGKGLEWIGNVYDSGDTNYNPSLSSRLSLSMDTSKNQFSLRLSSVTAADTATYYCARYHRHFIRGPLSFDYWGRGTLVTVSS VL: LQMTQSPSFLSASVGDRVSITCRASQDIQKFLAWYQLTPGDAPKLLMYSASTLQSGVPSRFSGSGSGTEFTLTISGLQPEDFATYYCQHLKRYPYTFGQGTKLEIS
4. Fab m18 K31A (LCDR1) (Fab, V domains shown) VH: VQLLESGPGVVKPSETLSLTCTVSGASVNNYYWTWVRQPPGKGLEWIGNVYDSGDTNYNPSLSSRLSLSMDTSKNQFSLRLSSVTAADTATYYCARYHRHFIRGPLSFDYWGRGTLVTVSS VL: LQMTQSPSFLSASVGDRVSITCRASQDIQAFLAWYQLTPGDAPKLLMYSASTLQSGVPSRFSGSGSGTEFTLTISGLQPEDFATYYCQHLKRYPYTFGQGTKLEIS

Ans:
1. 17000
2. 35000
3. 52000
4. 17000

These measurements were taken from paper PMC3499988.
